- measured target: UniProt:P35557
- experiment description: DSC thermal denaturation
- conditions: EC50 of glucose dependency of heat capacity (Cp), 20% glycerol; hyperbolic fit
pEC50: −log10 of the molar value.
measure name: pEC50

compound="OC[C@H]1OC(O)[C@H](O)[C@@H](O)[C@@H]1O (stereo partly shown)" obs_value=1.46

---

- measured target: GK-W167 (W99R/W257F) (Homo sapiens, UniProt P35557, W257F/W99R)
- Sequence (P35557 1-465 W99R/W257F): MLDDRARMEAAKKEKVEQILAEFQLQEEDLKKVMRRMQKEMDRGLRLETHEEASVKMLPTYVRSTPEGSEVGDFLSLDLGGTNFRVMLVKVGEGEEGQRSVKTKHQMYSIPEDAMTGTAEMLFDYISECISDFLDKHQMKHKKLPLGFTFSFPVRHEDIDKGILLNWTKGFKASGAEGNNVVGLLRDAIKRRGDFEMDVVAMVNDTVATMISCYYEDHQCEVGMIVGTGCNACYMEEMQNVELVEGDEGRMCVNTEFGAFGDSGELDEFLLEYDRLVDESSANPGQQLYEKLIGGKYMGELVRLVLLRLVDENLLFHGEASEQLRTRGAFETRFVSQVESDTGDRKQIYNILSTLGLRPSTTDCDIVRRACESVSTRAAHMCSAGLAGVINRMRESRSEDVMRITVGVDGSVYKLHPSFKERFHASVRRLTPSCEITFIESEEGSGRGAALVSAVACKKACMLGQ
- experiment description: D-glucose binding by tryptophan fluorescence titration
- conditions: W-167, no GKA, 20% glycerol
measure name: Kd (µM)

compound="OC[C@H]1OC(O)[C@H](O)[C@@H](O)[C@@H]1O (stereo partly shown)" measure_name=Kd unit_symbol=µM obs_value=90

Data origin, for the record: paper PMC4180501
